Tested on: PC-3
PROTOCOL DESCRIPTION: Cytotoxicity against human PC3 cells after 72 hrs by MTT assay
Type: functional
MEASUREMENT CONDITIONS: PC-3, 72 h
TGI values by entry

>  <MOLECULE SMILES>
C[Se]/C(=N\C(=O)c1c2ccccc2nc2ccccc12)NC(=O)c1c2ccccc2nc2ccccc12

>  <SUBJECT OF TEST>
PC-3

>  <TGI / µM>
80.1

$$$$
>  <MOLECULE SMILES>
C[Se]/C(=N\C(=O)c1cc2ccccc2s1)NC(=O)c1cc2ccccc2s1

>  <SUBJECT OF TEST>
PC-3

>  <TGI / µM>
65.6

$$$$
>  <MOLECULE SMILES>
COc1cccc2c1C(=O)c1c(O)c3c(c(O)c1C2=O)C[C@@](O)(C(=O)CO)C[C@@H]3O[C@H]1C[C@H](N)[C@H](O)[C@H](C)O1

>  <SUBJECT OF TEST>
PC-3

>  <TGI / µM>
3.16

$$$$
>  <MOLECULE SMILES>
O=C(/N=C(/NC(=O)c1c2ccccc2nc2ccccc12)[Se]Cc1ccccc1)c1c2ccccc2nc2ccccc12

>  <SUBJECT OF TEST>
PC-3

>  <TGI / µM>
77.4

$$$$
>  <MOLECULE SMILES>
C[Se]/C(=N\C(=O)c1ccno1)NC(=O)c1ccno1

>  <SUBJECT OF TEST>
PC-3

>  <TGI / µM>
39.3

$$$$

----------
PROTOCOL DESCRIPTION: Cytotoxicity against human MCF10A cells after 72 hrs by MTT assay
Type: cell-based, MCF-10A
MEASUREMENT CONDITIONS: mcf-10a, 72 h
Field 'label' (enum: criterion met / criterion not met). Set to criterion met when TGI is strictly under 20 µM; else criterion not met.

>  <MOLECULE SMILES>
O=C(/N=C(/NC(=O)c1cnc2ccccc2c1)[Se]Cc1ccccc1)c1cnc2ccccc2c1

>  <GROUP LABEL>
criterion not met

$$$$
>  <MOLECULE SMILES>
CS/C(=N\C(=O)c1csc([N+](=O)[O-])c1)NC(=O)c1csc([N+](=O)[O-])c1

>  <GROUP LABEL>
criterion not met

$$$$
>  <MOLECULE SMILES>
C[Se]/C(=N\C(=O)c1cc2ccccc2s1)NC(=O)c1cc2ccccc2s1

>  <GROUP LABEL>
criterion not met

$$$$
>  <MOLECULE SMILES>
O=C(/N=C(/NC(=O)c1csc([N+](=O)[O-])c1)[Se]Cc1ccccc1)c1csc([N+](=O)[O-])c1

>  <GROUP LABEL>
criterion not met

$$$$
>  <MOLECULE SMILES>
CS/C(=N\C(=O)c1ccc2c(c1)OCO2)NC(=O)c1ccc2c(c1)OCO2

>  <GROUP LABEL>
criterion met

$$$$
>  <MOLECULE SMILES>
O=C(/N=C(/NC(=O)c1cc2ccccc2s1)[Se]Cc1ccccc1)c1cc2ccccc2s1

>  <GROUP LABEL>
criterion not met

$$$$
>  <MOLECULE SMILES>
C[Se]/C(=N\C(=O)c1cccs1)NC(=O)c1cccs1

>  <GROUP LABEL>
criterion not met

$$$$
>  <MOLECULE SMILES>
C[Se]/C(=N\C(=O)c1sccc1Cl)NC(=O)c1sccc1Cl

>  <GROUP LABEL>
criterion met

$$$$
>  <MOLECULE SMILES>
C[Se]/C(=N\C(=O)c1ccc2c(c1)OCO2)NC(=O)c1ccc2c(c1)OCO2

>  <GROUP LABEL>
criterion not met

$$$$
>  <MOLECULE SMILES>
C[Se]/C(=N\C(=O)c1csc([N+](=O)[O-])c1)NC(=O)c1csc([N+](=O)[O-])c1

>  <GROUP LABEL>
criterion met

$$$$
>  <MOLECULE SMILES>
O=C(/N=C(/NC(=O)c1cccs1)[Se]Cc1ccccc1)c1cccs1

>  <GROUP LABEL>
criterion not met

$$$$
>  <MOLECULE SMILES>
CS/C(=N\C(=O)c1cc2ccccc2s1)NC(=O)c1cc2ccccc2s1

>  <GROUP LABEL>
criterion met

$$$$
>  <MOLECULE SMILES>
CS/C(=N\C(=O)c1ccno1)NC(=O)c1ccno1

>  <GROUP LABEL>
criterion not met

$$$$
>  <MOLECULE SMILES>
C[Se]/C(=N\C(=O)c1ccco1)NC(=O)c1ccco1

>  <GROUP LABEL>
criterion not met

$$$$
>  <MOLECULE SMILES>
C[Se]/C(=N\C(=O)c1c2ccccc2nc2ccccc12)NC(=O)c1c2ccccc2nc2ccccc12

>  <GROUP LABEL>
criterion not met

$$$$
>  <MOLECULE SMILES>
O=C(/N=C(/NC(=O)c1ccc2c(c1)OCO2)[Se]Cc1ccccc1)c1ccc2c(c1)OCO2

>  <GROUP LABEL>
criterion not met

$$$$
>  <MOLECULE SMILES>
O=C(/N=C(/NC(=O)c1ccno1)[Se]Cc1ccccc1)c1ccno1

>  <GROUP LABEL>
criterion not met

$$$$
>  <MOLECULE SMILES>
CS/C(=N\C(=O)c1cc(-c2ccccc2)nc2ccccc12)NC(=O)c1cc(-c2ccccc2)nc2ccccc12

>  <GROUP LABEL>
criterion met

$$$$
>  <MOLECULE SMILES>
O=C(/N=C(/NC(=O)c1ccco1)[Se]Cc1ccccc1)c1ccco1

>  <GROUP LABEL>
criterion not met

$$$$

----------
Test system: PC-3
PROTOCOL DESCRIPTION: Cytotoxicity against human PC3 cells after 72 hrs by MTT assay
Assay type: functional
MEASUREMENT CONDITIONS: PC-3, 72 h
Field 'label' (enum: 1.0 / 0.0). Set to 1.0 when TGI is strictly under 60 µM; else 0.0.

>  <COMPOUND>
CC[C@@]1(O)C(=O)OCc2c1cc1n(c2=O)Cc2cc3ccccc3nc2-1

>  <GROUP LABEL>
0.0

$$$$
>  <COMPOUND>
CS/C(=N\C(=O)c1ccco1)NC(=O)c1ccco1

>  <GROUP LABEL>
0.0

$$$$
>  <COMPOUND>
CS/C(=N\C(=O)c1cc(-c2ccccc2)nc2ccccc12)NC(=O)c1cc(-c2ccccc2)nc2ccccc12

>  <GROUP LABEL>
0.0

$$$$
>  <COMPOUND>
CS/C(=N\C(=O)c1cnc2ccccc2c1)NC(=O)c1cnc2ccccc2c1

>  <GROUP LABEL>
0.0

$$$$
>  <COMPOUND>
O=C(/N=C(/NC(=O)c1cccs1)[Se]Cc1ccccc1)c1cccs1

>  <GROUP LABEL>
0.0

$$$$
>  <COMPOUND>
C[Se]/C(=N\C(=O)c1cccs1)NC(=O)c1cccs1

>  <GROUP LABEL>
0.0

$$$$
>  <COMPOUND>
C[Se]/C(=N\C(=O)c1ccc2c(c1)OCO2)NC(=O)c1ccc2c(c1)OCO2

>  <GROUP LABEL>
1.0

$$$$
>  <COMPOUND>
C[Se]/C(=N\C(=O)c1sccc1Cl)NC(=O)c1sccc1Cl

>  <GROUP LABEL>
1.0

$$$$
>  <COMPOUND>
O=C(/N=C(/NC(=O)c1cnc2ccccc2c1)[Se]Cc1ccccc1)c1cnc2ccccc2c1

>  <GROUP LABEL>
0.0

$$$$
>  <COMPOUND>
CN(Cc1cnc2nc(N)nc(N)c2n1)c1ccc(C(=O)N[C@@H](CCC(=O)O)C(=O)O)cc1 [METHOTREXATE]

>  <GROUP LABEL>
0.0

$$$$
>  <COMPOUND>
O=C(/N=C(/NC(=O)c1ccno1)[Se]Cc1ccccc1)c1ccno1

>  <GROUP LABEL>
0.0

$$$$
>  <COMPOUND>
CC(=O)O[C@H]1C(=O)[C@@]2(C)[C@H]([C@H](OC(=O)c3ccccc3)[C@]3(O)C[C@H](OC(=O)[C@H](O)[C@@H](NC(=O)c4ccccc4)c4ccccc4)C(C)=C1C3(C)C)[C@]1(OC(C)=O)CO[C@@H]1C[C@@H]2O

>  <GROUP LABEL>
1.0

$$$$
>  <COMPOUND>
O=C(/N=C(/NC(=O)c1ccc2c(c1)OCO2)[Se]Cc1ccccc1)c1ccc2c(c1)OCO2

>  <GROUP LABEL>
0.0

$$$$
>  <COMPOUND>
C[Se]/C(=N\C(=O)c1ccco1)NC(=O)c1ccco1

>  <GROUP LABEL>
1.0

$$$$
>  <COMPOUND>
CS/C(=N\C(=O)c1cccs1)NC(=O)c1cccs1

>  <GROUP LABEL>
0.0

$$$$
>  <COMPOUND>
O=C(/N=C(/NC(=O)c1cc(-c2ccccc2)nc2ccccc12)[Se]Cc1ccccc1)c1cc(-c2ccccc2)nc2ccccc12

>  <GROUP LABEL>
0.0

$$$$
>  <COMPOUND>
CS/C(=N\C(=O)c1c2ccccc2nc2ccccc12)NC(=O)c1c2ccccc2nc2ccccc12

>  <GROUP LABEL>
0.0

$$$$
